CC50 listing for selected compounds.
Test system: HSC-3
Test Description: Cytotoxicity against human HSC3 cells after 48 hrs
Type: functional
Assay Setup: HSC-3, 48 h
Kindly format the answer as number then unit.

Look over these answered cases.
compound="N[C@@H](Cc1ccc(N(CCCl)CCCl)cc1)C(=O)O [MELPHALAN]" measured_result="25 µM"
compound=O=C1/C(=C/c2ccccc2)CN(C(=O)CCCCCCC(=O)N2C/C(=C\c3ccccc3)C(=O)/C(=C/c3ccccc3)C2)C/C1=C\c1ccccc1 measured_result="0.21 µM"
compound=O=C1/C(=C/c2ccccc2)CN(C(=O)CCC(=O)N2C/C(=C\c3ccccc3)C(=O)/C(=C/c3ccccc3)C2)C/C1=C\c1ccccc1 measured_result="0.23 µM"
compound=O=C1/C(=C/c2ccccc2)CN(C(=O)c2cccc(C(=O)N3C/C(=C\c4ccccc4)C(=O)/C(=C/c4ccccc4)C3)c2)C/C1=C\c1ccccc1 measured_result="6.3 µM"
compound=O=C1/C(=C/c2ccccc2)CN(C(=O)C(=O)N2C/C(=C\c3ccccc3)C(=O)/C(=C/c3ccccc3)C2)C/C1=C\c1ccccc1 measured_result="0.15 µM"
compound=O=C1/C(=C/c2ccccc2)CN(C(=O)CCCC(=O)N2C/C(=C\c3ccccc3)C(=O)/C(=C/c3ccccc3)C2)C/C1=C\c1ccccc1 measured_result="0.17 µM"

Here is the next item to consider.
Inquiry: I would be grateful if you could share the reported CC50 for `O=C1/C(=C/c2ccccc2)CN(C(=O)/C=C/C(=O)N2C/C(=C\c3ccccc3)C(=O)/C(=C/c3ccccc3)C2)C/C1=C\c1ccccc1` .
Reply text: 0.62 µM
